# MEASUREMENT_PROTOCOL: Hemolytic activity in rabbit erythrocytes assessed as hemolysis at 200 ug/ml measured after 1 hr by microplate reader analysis relative to control
# Format: ADME, cell-based, Oryctolagus cuniculus, Erythrocyte
# CONDITION_NOTES: at 200 µg/mL, read-out: Activity
OBSERVABLE: hemolysis at 1 h, 200 ug/ml (%)
Return type: number; implicit unit %.

Noted for CC(C)=CCn1c2ccccc2c2c(OCC(O)CNC(=N)N)cccc21 (stereo unspecified) : its hemolysis at 1 h, 200 ug/ml reads 3.5

====

Below is a list of entries, each paired with its recorded HC50 at 1 h value.
# MEASUREMENT_PROTOCOL: Hemolytic activity in rabbit erythrocytes measured after 1 hr by microplate reader analysis
# Assay type: ADME, cell-based, Oryctolagus cuniculus, Erythrocyte

Check out these entries, answers already filled in.
CCCC[N+](C)(CCCC)CC(O)COc1cccc2c1c1ccccc1n2CC=C(C)C.[I-] (configuration not stated)	61.3 µg/mL
CCCn1c2ccccc2c2c(OCC3CO3)cccc21 (configuration not stated)	> 200 µg/mL
CCCn1c2ccccc2c2c(OCC(O)CN(C)C)cccc21 (configuration not stated)	> 200 µg/mL
CCCCCCCCCn1c2ccccc2c2c(OCC3CO3)cccc21 (configuration not stated)	> 200 µg/mL
CCCN(CCC)CC(O)COc1cccc2c1c1ccccc1n2CC=C(C)C (configuration not stated)	> 200 µg/mL

Moving on to the next molecule.
Input CC(C)=CCn1c2ccccc2c2c(OCC(O)CN(CCO)CCO)cccc21 (configuration not stated) . Output HC50 at 1 h: 126 µg/mL

====

# MEASUREMENT_PROTOCOL: Hemolytic activity in rabbit erythrocytes measured after 1 hr by microplate reader analysis
# Assay type: ADME, cell-based, Oryctolagus cuniculus, Erythrocyte
# HC50 at 1 h values compiled below

# example entries with known answers
c1ccc2c(c1)[nH]c1cccc(OCC3CO3)c12 (stereo unspecified)	> 200 µg/mL
Cn1c2ccccc2c2c(OCC3CO3)cccc21 (stereo unspecified)	> 200 µg/mL
CC(C)=CCn1c2ccccc2c2c(OCC(O)CNC(C)C)cccc21 (stereo unspecified)	160 µg/mL
CCCCCNCC(O)COc1cccc2c1c1ccccc1n2CC=C(C)C (stereo unspecified)	> 200 µg/mL
CCCCCCCn1c2ccccc2c2c(OCC3CO3)cccc21 (stereo unspecified)	> 200 µg/mL

HC50 at 1 h for CC(C)=CCn1c2ccccc2c2c(OCC(O)CN3CCN(C)CC3)cccc21 (stereo unspecified) is 70 µg/mL

HC50 at 1 h recorded for this compound, N=C(N)NCC(O)COc1cccc2[nH]c3ccccc3c12 (stereo unspecified) , is > 200 µg/mL

The reported value for CCNCC(O)COc1cccc2c1c1ccccc1n2CC=C(C)C (stereo unspecified) in terms of HC50 at 1 h is 156 µg/mL

CCCCCn1c2ccccc2c2c(OCC(O)CN(C)C)cccc21 (stereo unspecified) has a reported HC50 at 1 h of 152 µg/mL

Reported HC50 at 1 h for CCCNCC(O)COc1cccc2c1c1ccccc1n2CC=C(C)C (stereo unspecified) was > 200 µg/mL

Field HC50 at 1 h (entry CC(C)=CCn1c2ccccc2c2c(OCC(O)CNC(=N)N)cccc21 (stereo unspecified) ) reads > 200 µg/mL
